All figures here come from ChEMBL document CHEMBL3763098.

# IC50 per record follows
Assay: Cytotoxicity against human PC3 cells assessed as inhibition of cell growth after 48 hrs by sulforhodamine B assay
Assay type: functional, cell-based
Conditions: PC-3, 48 h

Answered cases to consult:
CC1(C)CCC[C@@]2(C)C1=C[C@H]1C(=O)[C@H](c3ccccc3Br)[C@H]12
> 50 µM
CC1(C)CCC[C@@]2(C)C1=C[C@H]1C(=O)O[C@H](c3ccccc3Cl)[C@H]12
> 50 µM
CC1(C)CCC[C@@]2(C)C1=C[C@H]1C(=O)O[C@H](c3ccccc3Br)[C@H]12
> 50 µM

Task item: Quick one: IC50 of `CC1(C)CCC[C@@]2(C)C1=C[C@H]1C(=O)[C@H](c3ccc(Cl)c(Cl)c3)[C@H]12` ?
Reply: > 50 µM

Task item: Quick one: IC50 of `CC1(C)CCC[C@@]2(C)C1=C[C@H]1C(=O)O[C@H](c3ccc(Cl)c(Cl)c3)[C@H]12` ?
Reply: 12 µM

Task item: Quick one: IC50 of `COc1ccccc1[C@H]1C(=O)[C@@H]2C=C3C(C)(C)CCC[C@]3(C)[C@H]12` ?
Reply: 8 µM

Task item: Quick one: IC50 of `CC1(C)CCC[C@@]2(C)C1=C[C@H]1C(=O)O[C@H](c3ccccc3F)[C@H]12` ?
Reply: > 50 µM

Task item: Quick one: IC50 of `Cc1ccccc1[C@H]1OC(=O)[C@@H]2C=C3C(C)(C)CCC[C@]3(C)[C@H]12` ?
Reply: 21 µM

Task item: Quick one: IC50 of `CC1(C)CCC[C@@]2(C)C1=C[C@H]1C(=O)[C@H](c3ccccc3F)[C@H]12` ?
Reply: > 50 µM

Task item: Quick one: IC50 of `COc1ccccc1[C@H]1OC(=O)[C@@H]2C=C3C(C)(C)CCC[C@]3(C)[C@H]12` ?
Reply: 10 µM

Task item: Quick one: IC50 of `CC1(C)CCC[C@@]2(C)C1=C[C@H]1C(=O)[C@H](c3ccccc3Cl)[C@H]12` ?
Reply: > 50 µM

Task item: Quick one: IC50 of `Cc1ccccc1[C@H]1C(=O)[C@@H]2C=C3C(C)(C)CCC[C@]3(C)[C@H]12` ?
Reply: > 50 µM

Task item: Quick one: IC50 of `CO[C@@]12[C@H](COC(N)=O)C3=C(C(=O)C(C)=C(N)C3=O)N1C[C@@H]1N[C@@H]12` ?
Reply: 0.2 µM

---

Assay: Induction of apoptosis in CHO cells assessed as viable cells at 10 uM after 24 hrs by Annexin V-FITC/propidium iodide staining based flow cytometry (reference value: 91.8%)
Type: cell-based, Cricetulus griseus
Conditions: chinese hamster, read-out: Activity
# viability at 24 h, 10 µM per record follows
Report the value in % with no unit label.

CC[C@@]1(O)C(=O)OCc2c1cc1n(c2=O)Cc2cc3ccccc3nc2-1
74.8
COc1ccccc1[C@H]1C(=O)[C@@H]2C=C3C(C)(C)CCC[C@]3(C)[C@H]12
54.5

Okay, next one:
Task item: Quick one: viability at 24 h, 10 µM of `COc1ccccc1[C@H]1OC(=O)[C@@H]2C=C3C(C)(C)CCC[C@]3(C)[C@H]12` ?
Reply: 56.8
